- Test system: MDA-MB-231 breast
- TEST_DETAILS: NCI-60 one-dose screen, 48 h
- STUDY_CONDITIONS: 10 µM unless noted
About 83,000 compounds went through this panel and 20% of them were active in at least one assay; those are over-represented in the sample as a whole. The source made the active and inactive calls. Rule for the calls: active = growth percent below 10; inactive = the rest.
Parameter call: string, one of active, inactive

Solved cases (3 shown):
COc1ccc2c(c1)[nH]c(=O)c1c3cc(C)c(C)cc3cn21 : active
COc1ccc(-c2c(N)n[nH]c2-c2cc3c(c(OC)c2OC)OCO3)cc1 : inactive
NC1N=C(SCC(=O)N2CCN(c3cc4c(cc3F)c(=O)c(C(=O)O)cn4C3CC3)CC2)NC(=O)/C1=C/c1ccc(Cl)cc1 (centres undefined) : inactive

Lab note: next molecule to report on.
Inquiry: What was the test verdict on O=C(c1ccccc1)C1OC1c1ccc([N+](=O)[O-])cc1 (centres undefined) ?
Reply text: inactive
